- test-system: UniProt Q01782
- Sequence (Q01782 1-288): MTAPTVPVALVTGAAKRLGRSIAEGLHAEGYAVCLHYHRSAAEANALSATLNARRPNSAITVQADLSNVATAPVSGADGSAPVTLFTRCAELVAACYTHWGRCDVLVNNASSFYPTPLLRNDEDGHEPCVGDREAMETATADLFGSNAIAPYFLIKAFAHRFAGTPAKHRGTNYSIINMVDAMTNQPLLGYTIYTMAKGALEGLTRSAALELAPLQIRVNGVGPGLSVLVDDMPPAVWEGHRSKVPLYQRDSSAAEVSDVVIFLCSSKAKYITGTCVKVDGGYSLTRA
- assay-notes: LmPTR1 indirect (cytochrome c-coupled) enzyme assay
- Assay type: biochemical
- assay-conditions: at 50 μM
Provide the reported inhibition at 50 µM of each item.

Per the reported UniProt Q01782 data, "Nc1nc2ccc(CN(Cc3ccc(Cl)c(Cl)c3)C3CC3)cc2s1" has inhibition at 50 µM of 38%

Per the reported UniProt Q01782 data, "Nc1nc2ccc(C(=O)N(CCc3ccc(Cl)c(Cl)c3)c3ccccc3)cc2s1" has inhibition at 50 µM of 31%

Per the reported UniProt Q01782 data, "Nc1nc2ccc(C(=O)N(Cc3ccc(Cl)c(Cl)c3)C3CC3)cc2s1" has inhibition at 50 µM of 26%

Per the reported UniProt Q01782 data, "Nc1nc2ccc(C(=O)NCCc3ccc(Cl)cc3)cc2s1" has inhibition at 50 µM of 32%

Per the reported UniProt Q01782 data, "Nc1nc2ccc(C(=O)NCCc3cccc(Cl)c3)cc2s1" has inhibition at 50 µM of 48%

Per the reported UniProt Q01782 data, "Nc1nc2ccc(C(=O)NCCc3ccccc3)cc2s1" has inhibition at 50 µM of 35%

Per the reported UniProt Q01782 data, "Nc1nc2ccc(C(=O)N(CCc3ccc(Cl)c(Cl)c3)C3CC3)cc2s1" has inhibition at 50 µM of 72%

Per the reported UniProt Q01782 data, "Nc1nc2ccc(C(=O)NCCc3cccc(Br)c3)cc2s1" has inhibition at 50 µM of 57%

Per the reported UniProt Q01782 data, "Nc1nc2ccc(C(=O)NCCc3ccc(Br)cc3)cc2s1" has inhibition at 50 µM of 33%
